Data provenance: patent US20190233493A1

# target_under_test: T1, RXFP1 receptor (UniProt Q9HBX9 1-757, limits assumed)
# T1 sequence (looked up): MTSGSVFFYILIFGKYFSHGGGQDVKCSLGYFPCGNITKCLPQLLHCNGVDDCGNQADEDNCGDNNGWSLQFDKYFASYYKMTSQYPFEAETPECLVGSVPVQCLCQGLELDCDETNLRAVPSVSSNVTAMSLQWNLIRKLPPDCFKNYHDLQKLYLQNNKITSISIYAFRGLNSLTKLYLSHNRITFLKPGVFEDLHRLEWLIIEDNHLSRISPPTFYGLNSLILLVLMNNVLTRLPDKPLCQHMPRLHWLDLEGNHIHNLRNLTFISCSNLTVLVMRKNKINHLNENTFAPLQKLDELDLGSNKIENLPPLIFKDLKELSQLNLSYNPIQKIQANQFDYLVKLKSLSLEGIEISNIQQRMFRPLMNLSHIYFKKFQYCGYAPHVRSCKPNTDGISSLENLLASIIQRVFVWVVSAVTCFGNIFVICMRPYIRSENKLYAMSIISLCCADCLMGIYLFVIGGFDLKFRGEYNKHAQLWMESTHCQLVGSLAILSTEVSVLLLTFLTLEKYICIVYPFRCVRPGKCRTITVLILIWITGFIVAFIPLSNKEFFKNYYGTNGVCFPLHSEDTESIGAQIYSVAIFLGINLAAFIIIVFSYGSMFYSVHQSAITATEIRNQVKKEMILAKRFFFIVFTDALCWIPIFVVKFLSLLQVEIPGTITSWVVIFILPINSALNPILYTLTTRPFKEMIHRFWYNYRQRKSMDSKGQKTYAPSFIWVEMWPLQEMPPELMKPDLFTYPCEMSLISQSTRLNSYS
# assay_name: cell-based or functional assay
*1 amine or outer side, *2 acyl side, *3 side chain or, on linkers, in order; H or OH if unused. Primed or numbered codes have the meaning given here. Side-chain parts run from the residue outwards. [ ]: non-standard residue; d: D form. The star is where a group is joined. γGlu = O=C(O)[C@H](CCC(=O)[*:2])N[*:1]; Stearoyl = CCCCCCCCCCCCCCCCCC(=O)*; Palmitoyl = CCCCCCCCCCCCCCCC(=O)*; Nle = CCCC[C@H](N)C(=O)O; PEG2′ = PEG2 spacer unit; PEG2″ = not defined here; Aib = CC(C)(N)C(=O)O
measured_endpoint: EC50 (nM), OVCAR 5 cells (cAMP)
Numbers only, in nM.

Some solved entries appear below for comparison.
binder: Ac-LEGREKVRAQI[Aib][Aib]EG[Nle]STWS[Aib]RKK([PEG2″-PEG2″-PEG2″-γGlu-γGlu-γGlu-Stearoyl])-NH2 [peptide of SEQ ID NO: 74]
reading: 0.07
//
binder: Ac-LEGREKVRAQI[Aib][Aib]EG[Nle]STWS[Aib]RK[PEG2′]K([PEG2′-PEG2′-γGlu-γGlu-γGlu-Palmitoyl])-NH2 [peptide of SEQ ID NO: 13]
reading: 8.1

Let us move to another entry and its EC50 (nM), OVCAR 5 cells (cAMP).
Recorded EC50 (nM), OVCAR 5 cells (cAMP) (binder Ac-LEGREKVRAK(Ac)I[Aib][Aib]EG[Nle]STFS[Aib]RKK(Ac)K([PEG2′-PEG2′-PEG2′-PEG2′-γGlu-γGlu-γGlu-γGlu-Palmitoyl])-NH2 [peptide of SEQ ID NO: 147] ): 2.14
